target.system: NRAS G12C (Homo sapiens (Human), UniProt P01111+P62937, G12C)
Sequence (P01111 whole entry G12C): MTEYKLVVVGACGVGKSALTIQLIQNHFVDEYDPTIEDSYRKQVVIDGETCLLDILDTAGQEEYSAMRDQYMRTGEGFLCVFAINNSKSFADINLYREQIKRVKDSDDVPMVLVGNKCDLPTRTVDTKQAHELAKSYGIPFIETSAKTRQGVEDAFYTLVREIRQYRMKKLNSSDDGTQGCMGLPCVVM
Sequence (P62937 whole entry): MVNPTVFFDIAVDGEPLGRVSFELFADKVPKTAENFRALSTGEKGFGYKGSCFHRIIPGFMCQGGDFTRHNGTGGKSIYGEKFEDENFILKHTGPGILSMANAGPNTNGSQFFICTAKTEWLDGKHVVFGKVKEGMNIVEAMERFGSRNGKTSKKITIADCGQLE
experiment.description: Ras-Raf disruption/FRET/MOA assay (BRAF RBD, Cyclophilin A)
Format: biochemical
test.parameters: read-out: NRAS G12C FRET data IC50
property.label: IC50

Observe how each entry below is paired with its result.
smiles.structure	property.label	reported.measurement
CCn1c(-c2cccnc2[C@H](C)OC)c2c3cc(ccc31)-c1csc(n1)C[C@H](NC(=O)[C@H](C(C)C)N1CCC3(CN(S(C)(=O)=O)C3)C1=O)C(=O)N1CCC[C@H](N1)C(=O)OCC(C)(C)C2	IC50	> 10000 nM
CCn1c(-c2cc(N3CCN(C)CC3)cnc2[C@H](C)OC)c2c3cc(ccc31)-c1csc(n1)C[C@H](NC(=O)[C@H](C(C)C)N(C)C(=O)N1CC(OC)C1)C(=O)N1CCC[C@H](N1)C(=O)OCC(C)(C)C2	IC50	10 to 100 nM
CCn1c(-c2cccnc2[C@H](C)OC)c2c3cc(ccc31)-c1cc(O)cc(c1)C[C@H](NC(=O)[C@H](C(C)C)N(C)C(=O)O[C@H]1CCN(C)C1)C(=O)N1CCC[C@H](N1)C(=O)OCC(C)(C)C2	IC50	100 to 1000 nM
CCn1c(-c2cccnc2[C@H](C)OC)c2c3cc(ccc31)-c1cc(O)cc(c1)C[C@H](NC(=O)[C@H](C(C)C)N(C)C(=O)C13CC(CO1)C3)C(=O)N1CCC[C@H](N1)C(=O)OCC(C)(C)C2	IC50	10 to 100 nM
CO[C@@H](C)c1ncccc1-c1c2c3cc(ccc3n1CC(F)(F)F)-c1csc(n1)C[C@H](NC(=O)[C@H](C(C)C)N(C)C(=O)N1CC(N(C)C)C1)C(=O)N1CCC[C@H](N1)C(=O)OCC(C)(C)C2	IC50	10 to 100 nM

// for each compound in input: emit IC50
1. CCn1c(-c2cccnc2[C@H](C)OC)c2c3cc(ccc31)-c1csc(n1)C[C@H](NC(=O)[C@H](C(C)C)N(C)C(=O)N1C[C@@H]3C[C@H]1CN3C)C(=O)N1CCC[C@H](N1)C(=O)OCC(C)(C)C2
2. CCn1c(-c2cccnc2[C@H](C)OC)c2c3cc(ccc31)-c1csc(n1)C[C@H](NC(=O)[C@H](C(C)C)N(C)C(=O)N1CC(S(=O)(=O)N(C)C)C1)C(=O)N1CCC[C@H](N1)C(=O)OCC(C)(C)C2

100 to 1000 nM
10 to 100 nM

For every listed record, write down its IC50.
1. CCn1c(-c2cccnc2[C@H](C)OC)c2c3cc(ccc31)-c1cc(O)cc(c1)C[C@H](NC(=O)[C@H](C(C)C)N(C)C(=O)[C@@H]1NC[C@@H]3C[C@@H]31)C(=O)N1CCC[C@H](N1)C(=O)OCC(C)(C)C2
2. CCn1c(-c2cccnc2[C@H](C)OC)c2c3cc(ccc31)-c1csc(n1)C[C@H](NC(=O)[C@H](C(C)C)N(C)C(=O)N(C)C[C@H]1CCN1C)C(=O)N1CCC[C@H](N1)C(=O)OCC(C)(C)C2

1. 10 to 100 nM
2. 100 to 1000 nM
